Catalogue of compounds with associated PTZ-induced seizure threshold
test system: pentylenetetrazole (PTZ)-induced seizure threshold; assay: PTZ-induced seizure threshold; type: in vivo, male C57BL/6N mice; conditions: 10 mg/kg i.p., 30 min before test; saline control 40.4 ± 1.4
observable: PTZ-induced seizure threshold (mg/kg PTZ)

[[record]]
compound = "CC1=C2[C@H](/C=C(\\C)C#N)CC[C@@H](C)[C@H]2CC1"
numeric_value = 51.1

[[record]]
compound = "CNC(=O)/C(C)=C/[C@@H]1CC[C@@H](C)[C@H]2CCC(C)=C12"
numeric_value = 50.4

[[record]]
compound = "CC1=C2[C@H](/C=C(\\C)C(=O)O)CC[C@@H](C)[C@H]2CC1 [VA, Valerenic acid, reference compound]"
numeric_value = 49.0

[[record]]
compound = "CC1=C2[C@H](/C=C(\\C)C(N)=O)CC[C@@H](C)[C@H]2CC1"
numeric_value = 55.4


###

target: α1β1γ2S receptors (Rattus norvegicus, UniProt P15431+P62813); assay: IGABA enhancement; type: cell-based; details: read-out: maximal IGABA enhancement (Emax)
Sequence (P15431 26-474): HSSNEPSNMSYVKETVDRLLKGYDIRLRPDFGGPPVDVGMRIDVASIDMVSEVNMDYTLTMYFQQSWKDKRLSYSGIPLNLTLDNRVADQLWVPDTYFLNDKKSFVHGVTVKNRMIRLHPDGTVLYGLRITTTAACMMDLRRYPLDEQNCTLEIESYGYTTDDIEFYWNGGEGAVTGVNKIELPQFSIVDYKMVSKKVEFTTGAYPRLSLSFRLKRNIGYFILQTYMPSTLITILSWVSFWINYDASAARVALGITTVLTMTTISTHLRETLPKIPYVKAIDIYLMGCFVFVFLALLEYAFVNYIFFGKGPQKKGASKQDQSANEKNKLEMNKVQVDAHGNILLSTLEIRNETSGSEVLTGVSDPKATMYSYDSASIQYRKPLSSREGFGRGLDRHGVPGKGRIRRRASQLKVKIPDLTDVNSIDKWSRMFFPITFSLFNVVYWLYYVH
Sequence (P62813 28-455): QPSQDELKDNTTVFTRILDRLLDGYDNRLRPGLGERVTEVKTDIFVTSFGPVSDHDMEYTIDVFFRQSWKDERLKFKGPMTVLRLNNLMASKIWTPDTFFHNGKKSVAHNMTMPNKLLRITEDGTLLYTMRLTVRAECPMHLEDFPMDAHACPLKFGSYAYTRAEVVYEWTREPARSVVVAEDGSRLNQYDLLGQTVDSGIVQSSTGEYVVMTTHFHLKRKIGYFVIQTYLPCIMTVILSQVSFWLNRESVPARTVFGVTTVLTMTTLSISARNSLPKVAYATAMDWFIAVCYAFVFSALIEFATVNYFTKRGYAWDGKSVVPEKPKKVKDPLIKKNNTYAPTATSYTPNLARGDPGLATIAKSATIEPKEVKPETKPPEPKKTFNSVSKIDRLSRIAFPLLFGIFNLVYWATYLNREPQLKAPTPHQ
Sequence (P18508 39-466 partner): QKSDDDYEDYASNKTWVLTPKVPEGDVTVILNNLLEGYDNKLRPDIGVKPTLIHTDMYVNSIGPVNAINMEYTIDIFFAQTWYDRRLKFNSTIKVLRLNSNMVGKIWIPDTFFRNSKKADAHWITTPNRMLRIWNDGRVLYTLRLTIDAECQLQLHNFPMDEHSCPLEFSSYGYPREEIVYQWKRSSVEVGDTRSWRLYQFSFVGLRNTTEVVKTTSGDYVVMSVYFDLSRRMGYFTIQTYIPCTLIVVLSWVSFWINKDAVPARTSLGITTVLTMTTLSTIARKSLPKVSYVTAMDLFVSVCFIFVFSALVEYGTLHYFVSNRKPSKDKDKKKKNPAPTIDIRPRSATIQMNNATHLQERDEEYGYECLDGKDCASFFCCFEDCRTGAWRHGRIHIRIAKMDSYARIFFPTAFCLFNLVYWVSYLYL
Catalogue of compounds with associated Emax
observable: Emax (%)

[[record]]
compound = "CC1=C2[C@H](/C=C(\\C)c3nnn[nH]3)CC[C@@H](C)[C@H]2CC1"
value_units = "%"
numeric_value = 176

[[record]]
compound = "CNC(=O)/C(C)=C/[C@@H]1CC[C@@H](C)[C@H]2CCC(C)=C12"
value_units = "%"
numeric_value = 387

[[record]]
compound = "CCNC(=O)/C(C)=C/[C@@H]1CC[C@@H](C)[C@H]2CCC(C)=C12"
value_units = "%"
numeric_value = 458

[[record]]
compound = "CC1=C2[C@H](/C=C(\\C)C#N)CC[C@@H](C)[C@H]2CC1"
value_units = "%"
numeric_value = 55

[[record]]
compound = "CC1=C2[C@H](/C=C(\\C)C(=O)N(C)C)CC[C@@H](C)[C@H]2CC1"
value_units = "%"
numeric_value = 305

[[record]]
compound = "CCN(CC)C(=O)/C(C)=C/[C@@H]1CC[C@@H](C)[C@H]2CCC(C)=C12"
value_units = "%"
numeric_value = 318

[[record]]
compound = "CC1=C2[C@H](/C=C(\\C)C(=O)O)CC[C@@H](C)[C@H]2CC1 [VA, Valerenic acid, reference compound]"
value_units = "%"
numeric_value = 111

[[record]]
compound = "CC1=C2[C@H](/C=C(\\C)C(N)=O)CC[C@@H](C)[C@H]2CC1"
value_units = "%"
numeric_value = 218


###

biological target: α1β3γ2S receptors (Rattus norvegicus, UniProt P62813+P63079); test: IGABA enhancement
Sequence (P63079 26-473): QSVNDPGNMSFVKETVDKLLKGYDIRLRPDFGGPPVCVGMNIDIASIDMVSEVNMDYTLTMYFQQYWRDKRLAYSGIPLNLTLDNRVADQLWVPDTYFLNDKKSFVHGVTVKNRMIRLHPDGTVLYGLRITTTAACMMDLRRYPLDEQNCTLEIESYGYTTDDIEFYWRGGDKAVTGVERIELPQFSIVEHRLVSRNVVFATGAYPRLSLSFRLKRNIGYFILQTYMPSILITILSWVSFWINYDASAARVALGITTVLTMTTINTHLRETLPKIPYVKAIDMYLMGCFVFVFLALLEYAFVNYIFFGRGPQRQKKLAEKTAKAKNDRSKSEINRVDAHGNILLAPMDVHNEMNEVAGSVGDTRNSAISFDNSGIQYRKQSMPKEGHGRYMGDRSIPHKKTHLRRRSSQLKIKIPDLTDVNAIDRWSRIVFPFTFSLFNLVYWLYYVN
Sequence (P62813 28-455): as the sequence (P62813 28-455) above
Sequence (P18508 39-466 partner): as the sequence (P18508 39-466 partner) above
Catalogue of compounds with associated log10(EC50)
observable: log10(EC50) (log10 of the value in µM)

[[record]]
smiles_str = "CC1=C2[C@H](/C=C(\\C)C(=O)N(C)C)CC[C@@H](C)[C@H]2CC1"
observable = "log10(EC50)"
numeric_value = 1.68

[[record]]
smiles_str = "CC1=C2[C@H](/C=C(\\C)C(N)=O)CC[C@@H](C)[C@H]2CC1"
observable = "log10(EC50)"
numeric_value = 0.88

[[record]]
smiles_str = "CC1=C2[C@H](/C=C(\\C)c3nnn[nH]3)CC[C@@H](C)[C@H]2CC1"
observable = "log10(EC50)"
numeric_value = 0.78

[[record]]
smiles_str = "CCN(CC)C(=O)/C(C)=C/[C@@H]1CC[C@@H](C)[C@H]2CCC(C)=C12"
observable = "log10(EC50)"
numeric_value = 1.91

[[record]]
smiles_str = "CC1=C2[C@H](/C=C(\\C)C#N)CC[C@@H](C)[C@H]2CC1"
observable = "log10(EC50)"
numeric_value = 1.63

[[record]]
smiles_str = "CCNC(=O)/C(C)=C/[C@@H]1CC[C@@H](C)[C@H]2CCC(C)=C12"
observable = "log10(EC50)"
numeric_value = 1.43

[[record]]
smiles_str = "CNC(=O)/C(C)=C/[C@@H]1CC[C@@H](C)[C@H]2CCC(C)=C12"
observable = "log10(EC50)"
numeric_value = 1.10


The values you see were collected from paper PMC4885513.
